target: Intestinal-type alkaline phosphatase (Homo sapiens); assay: inhibition of human intestinal alkaline phosphatase – biochemical, dose response (AID 488876); type: functional
Sequence (P09923 whole entry): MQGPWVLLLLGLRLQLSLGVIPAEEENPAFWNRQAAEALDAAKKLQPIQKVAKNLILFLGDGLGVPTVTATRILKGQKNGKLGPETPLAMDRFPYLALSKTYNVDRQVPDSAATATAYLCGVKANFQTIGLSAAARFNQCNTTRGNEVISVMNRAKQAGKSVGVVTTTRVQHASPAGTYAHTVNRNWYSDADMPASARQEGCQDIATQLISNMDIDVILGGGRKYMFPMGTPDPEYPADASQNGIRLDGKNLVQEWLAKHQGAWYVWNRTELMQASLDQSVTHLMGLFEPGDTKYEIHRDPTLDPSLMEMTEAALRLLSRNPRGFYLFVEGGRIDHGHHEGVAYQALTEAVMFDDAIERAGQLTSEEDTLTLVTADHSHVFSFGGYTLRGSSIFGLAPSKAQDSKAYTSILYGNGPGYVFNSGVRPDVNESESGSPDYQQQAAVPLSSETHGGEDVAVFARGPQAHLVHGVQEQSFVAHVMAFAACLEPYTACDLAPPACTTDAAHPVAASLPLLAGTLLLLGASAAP
The source made the active and inactive calls. No stated cut-off is given here; in the data, actives have a measured IC50 and inactives only a lower limit.
Lab note: assign the record to one of active, inactive

CCn1c(SCC(=O)c2ccc(O)c(O)c2)nnc1-c1ccccc1OC    inactive
O=C(N/N=C/c1cn(Cc2cccc(F)c2)c2ccccc12)c1cc(O)cc(O)c1    inactive
COc1ccc(C(=O)OCC(=O)Nc2ncc([N+](=O)[O-])s2)cc1OC    active

From here, focus on the item given below.
Q: Given `O=C(NC1CCCCC1)Oc1cc2oc(=O)sc2cc1Cl` , state the outcome it received in this test.
Ans: active

These measurements were taken from ChEMBL document CHEMBL1201862.
